- System: T1, Astn1 P1268L (control peptide) peptide on HLA-A*02:01 (human)
- T1 peptide: KLYGLDWAEL
- Test Details: cytokine release
Measurement Name: binding result

- TCR_2 (TCR, V domains shown) Valpha: GENVEQHPSTLSVQEGDSAVIKCTYSDSASNYFPWYKQELGKGPQLIIDIRSNVGEKKDQRIAVTLNKTAKHFSLHITETQPEDSAVYFCAAHTPGYSTLTFGKGTMLLVSP Vbeta: DTGVSQNPRHKITKRGQNVTFRCDPISEHNRLYWYRQTLGQGPEFLTYFQNEAQLEKSRLLSDRFSAERPKGSFSTLEIQRTEQGDSAMYLCASSPRAGGETQYFGPGTRLLVL: no recognition
- TCR_5 (TCR, V domains shown) Valpha: TQLLEQSPQFLSIQEGENLTVYCNSSSVFSSLQWYRQEPGEGPVLLVTVVTGGEVKKLKRLTFQFGDARKDSSLHITAAQTGDTGLYLCAGAGNNDMRFGAGTRLTVKP Vbeta: DTGVSQNPRHKITKRGQNVTFRCDPISEHNRLYWYRQTLGQGPEFLTYFQNEAQLEKSRLLSDRFSAERPKGSFSTLEIQRTEQGDSAMYLCASSLVRGIEAFFGQGTRLTVV: no recognition
- TCR_3 (TCR, V domains shown) Valpha: SQQGEEDPQALSIQEGENATMNCSYKTSINNLQWYRQNSGRGLVHLILIRSNEREKHSGRLRVTLDTSKKSSSLLITASRAADTASYFCATGDQTGANNLFFGTGTRLTVIP Vbeta: DTGVSQNPRHKITKRGQNVTFRCDPISEHNRLYWYRQTLGQGPEFLTYFQNEAQLEKSRLLSDRFSAERPKGSFSTLEIQRTEQGDSAMYLCASSLTRTEKLFFGSGTQLSVL: no recognition

Where these numbers come from: patent US20210300987A1
